Test system: splenic lymphocytes
Test: Proliferation of splenic lymphocytes in mice (ConA, MTT)
Assay type: cell-based
Conditions: polypeptide dose 0.1 μM, ConA-stimulated mouse splenic lymphocytes, 48 h
Description: Spleens of mice were taken out under aseptic conditions, washed with blank 1640 culture medium 3 times, ground with a 5 mL syringe core, filtered with a 200-mesh sieve, made into a single cell suspension. The suspension was centrifuged (1000 rpm×5 min), and supernatant was removed. […] The cells were counted and the cell concentration was adjusted to 5×10^6 cells/mL, and the cells were cultured in a 96-well culture plate. […]
Peptide text beside a SMILES is read from it. * marks the point of attachment. X65 = O=C1C=CC(=O)N1c1cccc(CCCCCCCCCCCCC(=O)*)c1; X84 = O=C1C=CC(=O)N1c1ccccc1CCCCCCCCCCCCC(=O)*; X64 = O=C1C=CC(=O)N1c1cccc(CCCCCCCCCC(=O)*)c1; X68 = O=C1C=CC(=O)N1c1ccccc1CCCCCCCCCCCC(=O)*; X66 = O=C1C=CC(=O)N1c1cccc(CCCCCCCC(=O)*)c1; X52 = O=C1C=CC(=O)N1c1ccccc1CCCCCCCC(=O)*; X71 = O=C1C=CC(=O)N1c1cccc(CCCCCC(=O)*)c1; X49 = O=C1C=CC(=O)N1c1ccccc1CCCCCC(=O)*; X75 = O=C1C=CC(=O)N1c1cccc(CC(=O)*)c1
READOUT: A570 nm/A630 nm

Name the reported A570 nm/A630 nm value associated with the compound C[C@H](NC(=O)CNC(=O)[C@H](CCCNC(=N)N)NC(=O)CCCCCc1ccccc1N1C(=O)C=CC1=O)C(=O)N[C@@H](CC(=O)O)C(=O)N[C@@H](CCCNC(=N)N)C(=O)N[C@@H](C)C(=O)NCC(=O)NCC(=O)NCC(=O)NCC(=O)N[C@@H](CCCNC(=N)N)C(=O)NCC(=O)N[C@@H](CC(=O)O)C(=O)O [X17] (X49-RGADRAGGGGRGD-OH)
0.5484 ± 0.1109

Return reported A570 nm/A630 nm; argument: C[C@H](NC(=O)CNC(=O)[C@H](CCCNC(=N)N)NC(=O)CCCCCCCc1cccc(N2C(=O)C=CC2=O)c1)C(=O)N[C@@H](CC(=O)O)C(=O)N[C@@H](CCCNC(=N)N)C(=O)N[C@@H](C)C(=O)NCC(=O)NCC(=O)NCC(=O)NCC(=O)N[C@@H](CCCNC(=N)N)C(=O)NCC(=O)N[C@@H](CC(=O)O)C(=O)O [X31] (X66-RGADRAGGGGRGD-OH)
0.6134 ± 0.1148

A570 nm/A630 nm for C[C@H](NC(=O)CNC(=O)[C@H](CCCNC(=N)N)NC(=O)CCCCCCCCCCCCc1ccccc1N1C(=O)C=CC1=O)C(=O)N[C@@H](CC(=O)O)C(=O)N[C@@H](CCCNC(=N)N)C(=O)N[C@@H](C)C(=O)NCC(=O)NCC(=O)NCC(=O)NCC(=O)N[C@@H](CCCNC(=N)N)C(=O)NCC(=O)N[C@@H](CC(=O)O)C(=O)O [X24] (X84-RGADRAGGGGRGD-OH) ?
0.5615 ± 0.1155

State the recorded A570 nm/A630 nm for this entry: C[C@H](NC(=O)CNC(=O)[C@H](CCCNC(=N)N)NC(=O)CCCCCCCCCCCCc1cccc(N2C(=O)C=CC2=O)c1)C(=O)N[C@@H](CC(=O)O)C(=O)N[C@@H](CCCNC(=N)N)C(=O)N[C@@H](C)C(=O)NCC(=O)NCC(=O)NCC(=O)NCC(=O)N[C@@H](CCCNC(=N)N)C(=O)NCC(=O)N[C@@H](CC(=O)O)C(=O)O [X36] (X65-RGADRAGGGGRGD-OH)
0.4566 ± 0.1223

Any idea what its A570 nm/A630 nm is? The compound is C[C@H](NC(=O)CNC(=O)[C@H](CCCNC(=N)N)NC(=O)CCCCCCCc1ccccc1N1C(=O)C=CC1=O)C(=O)N[C@@H](CC(=O)O)C(=O)N[C@@H](CCCNC(=N)N)C(=O)N[C@@H](C)C(=O)NCC(=O)NCC(=O)NCC(=O)NCC(=O)N[C@@H](CCCNC(=N)N)C(=O)NCC(=O)N[C@@H](CC(=O)O)C(=O)O [X19] (X52-RGADRAGGGGRGD-OH)
0.5027 ± 0.0814

Can you look up the measured A570 nm/A630 nm of C[C@H](NC(=O)CNC(=O)[C@H](CCCNC(=N)N)NC(=O)CCCCCCCCCCCc1ccccc1N1C(=O)C=CC1=O)C(=O)N[C@@H](CC(=O)O)C(=O)N[C@@H](CCCNC(=N)N)C(=O)N[C@@H](C)C(=O)NCC(=O)NCC(=O)NCC(=O)NCC(=O)N[C@@H](CCCNC(=N)N)C(=O)NCC(=O)N[C@@H](CC(=O)O)C(=O)O [X23] (X68-RGADRAGGGGRGD-OH) for me?
0.4982 ± 0.1212

Given the compound C[C@H](NC(=O)CNC(=O)[C@H](CCCNC(=N)N)NC(=O)CCCCCc1cccc(N2C(=O)C=CC2=O)c1)C(=O)N[C@@H](CC(=O)O)C(=O)N[C@@H](CCCNC(=N)N)C(=O)N[C@@H](C)C(=O)NCC(=O)NCC(=O)NCC(=O)NCC(=O)N[C@@H](CCCNC(=N)N)C(=O)NCC(=O)N[C@@H](CC(=O)O)C(=O)O [X29] (X71-RGADRAGGGGRGD-OH) , what is its reported A570 nm/A630 nm?
0.5284 ± 0.0661

Form field: reported A570 nm/A630 nm of C[C@H](NC(=O)CNC(=O)[C@H](CCCNC(=N)N)NC(=O)CCCCCCCCCc1cccc(N2C(=O)C=CC2=O)c1)C(=O)N[C@@H](CC(=O)O)C(=O)N[C@@H](CCCNC(=N)N)C(=O)N[C@@H](C)C(=O)NCC(=O)NCC(=O)NCC(=O)NCC(=O)N[C@@H](CCCNC(=N)N)C(=O)NCC(=O)N[C@@H](CC(=O)O)C(=O)O [X33] (X64-RGADRAGGGGRGD-OH)
0.5297 ± 0.0479

Using the record for C[C@H](NC(=O)CNC(=O)[C@H](CCCNC(=N)N)NC(=O)Cc1cccc(N2C(=O)C=CC2=O)c1)C(=O)N[C@@H](CC(=O)O)C(=O)N[C@@H](CCCNC(=N)N)C(=O)N[C@@H](C)C(=O)NCC(=O)NCC(=O)NCC(=O)NCC(=O)N[C@@H](CCCNC(=N)N)C(=O)NCC(=O)N[C@@H](CC(=O)O)C(=O)O [X25] (X75-RGADRAGGGGRGD-OH) , report its A570 nm/A630 nm.
0.5673 ± 0.0906

====

tested on: corneal neovascularization; assay: Corneal neovascularization induced by alkali burn in BALB/c mice; format: in vivo; parameters: concentration or dose not given beside the values; details: day 14 after alkali burn, vitreous injection once a day for 1 week
Peptide text beside a SMILES is read from it. * marks the point of attachment. X60 = O=C1C=CC(=O)N1c1ccccc1CCCCCCCCCC(=O)*; X63 = O=C1C=CC(=O)N1c1ccccc1CCCCCCC(=O)*; X61 = O=C1C=CC(=O)N1c1cccc(CCCC(=O)*)c1
Hi there, I'd appreciate the recorded Inhibition rate (corneal neovascularization) for every entry that follows.
Mention the unit after the number when you answer.

For the molecule shown here, C[C@H](NC(=O)CNC(=O)[C@H](CCCNC(=N)N)NC(=O)CCCCCCc1ccccc1N1C(=O)C=CC1=O)C(=O)N[C@@H](CC(=O)O)C(=O)N[C@@H](CCCNC(=N)N)C(=O)N[C@@H](C)C(=O)NCC(=O)NCC(=O)NCC(=O)NCC(=O)N[C@@H](CCCNC(=N)N)C(=O)NCC(=O)N[C@@H](CC(=O)O)C(=O)O [X18] (X63-RGADRAGGGGRGD-OH) , give the reported Inhibition rate (corneal neovascularization).
50.18%

Item under review: C[C@H](NC(=O)CNC(=O)[C@H](CCCNC(=N)N)NC(=O)CCCCCCCCCc1ccccc1N1C(=O)C=CC1=O)C(=O)N[C@@H](CC(=O)O)C(=O)N[C@@H](CCCNC(=N)N)C(=O)N[C@@H](C)C(=O)NCC(=O)NCC(=O)NCC(=O)NCC(=O)N[C@@H](CCCNC(=N)N)C(=O)NCC(=O)N[C@@H](CC(=O)O)C(=O)O [X21] (X60-RGADRAGGGGRGD-OH) . Reported Inhibition rate (corneal neovascularization)?
45.93%

Can you look up the measured Inhibition rate (corneal neovascularization) of C[C@H](NC(=O)CNC(=O)[C@H](CCCNC(=N)N)NC(=O)CCCc1cccc(N2C(=O)C=CC2=O)c1)C(=O)N[C@@H](CC(=O)O)C(=O)N[C@@H](CCCNC(=N)N)C(=O)N[C@@H](C)C(=O)NCC(=O)NCC(=O)NCC(=O)NCC(=O)N[C@@H](CCCNC(=N)N)C(=O)NCC(=O)N[C@@H](CC(=O)O)C(=O)O [X27] (X61-RGADRAGGGGRGD-OH) for me?
43.93%
